Target: Nanoluciferase-BRD9 fusion protein (3×FLAG-NLuc-BRD9) in SYO-1 cells (Homo sapiens (Human))
Sequence (Q9H8M2 whole entry, the tested form may be a part): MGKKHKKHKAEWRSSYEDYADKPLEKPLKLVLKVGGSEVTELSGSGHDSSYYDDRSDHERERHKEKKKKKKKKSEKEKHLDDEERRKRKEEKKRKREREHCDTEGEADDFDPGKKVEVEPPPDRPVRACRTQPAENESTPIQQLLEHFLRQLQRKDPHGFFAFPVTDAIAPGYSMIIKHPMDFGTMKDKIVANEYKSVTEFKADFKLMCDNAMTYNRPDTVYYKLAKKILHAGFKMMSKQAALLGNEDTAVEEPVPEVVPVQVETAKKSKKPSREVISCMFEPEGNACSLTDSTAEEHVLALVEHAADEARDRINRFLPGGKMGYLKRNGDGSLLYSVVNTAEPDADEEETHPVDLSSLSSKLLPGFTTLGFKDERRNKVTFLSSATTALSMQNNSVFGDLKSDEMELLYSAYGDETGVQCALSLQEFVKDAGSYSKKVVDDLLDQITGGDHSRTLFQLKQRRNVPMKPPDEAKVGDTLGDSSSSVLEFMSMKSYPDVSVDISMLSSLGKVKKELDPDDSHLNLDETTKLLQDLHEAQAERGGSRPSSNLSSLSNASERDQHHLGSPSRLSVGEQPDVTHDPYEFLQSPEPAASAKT
Experiment: SYO1 BRD9 NanoLuc degradation assay
Format: cell-based
Settings: SYO-1 cells expressing 3×FLAG-NLuc-BRD9, 6 hours incubation, top dose 1 μM
Can you tell me IC50 for the items I'm about to list?

For this compound ( COc1cc(-c2cn(C)c(=O)c3c2CCN(C(=O)NCCCN2CCC4(CCN(c5ccc6c(c5)C(=O)N(C5CCC(=O)NC5=O)C6=O)C4)C2)C3)cc(OC)c1CN(C)C (stereo not shown) ), measured IC50 is 0.01 to 0.1 µM

For this compound ( CNC(=O)N1CCc2c(-c3cc(OC)c(CN4CCC(CCN5CCC(c6ccc7c(c6)C(=O)N(C6CCC(=O)NC6=O)C7=O)CC5)CC4)c(OC)c3)cn(C)c(=O)c2C1 (stereo not shown) ), measured IC50 is < 0.01 µM

For this compound ( CNC(=O)N1CCc2c(-c3cc(OC)c(CN4CCC(CCN(C)C5CCN(c6ccc7c(c6)C(=O)N(C6CCC(=O)NC6=O)C7=O)C5)CC4)c(OC)c3)cn(C)c(=O)c2C1 (stereo not shown) ), measured IC50 is < 0.01 µM

For this compound ( CNC(=O)N1CCc2c(-c3cc(OC)c(CN4CC(S(=O)(=O)NCCCOc5ccc6c(c5)C(=O)N(C5CCC(=O)NC5=O)C6=O)C4)c(OC)c3)cn(C)c(=O)c2C1 (stereo not shown) ), measured IC50 is 0.1 to 1 µM

For this compound ( CNC(=O)N1CCc2c(-c3cc(OC)c(CN4CCC(=CCN5CCN(c6ccc7c(c6)C(=O)N(C6CCC(=O)NC6=O)C7=O)CC5)CC4)c(OC)c3)cn(C)c(=O)c2C1 (stereo not shown) ), measured IC50 is < 0.01 µM

For this compound ( CNC(=O)N1CCc2c(-c3cc(OC)c(CN4CCC(CCN5CCN(c6ccn7c(=O)n(C8CCC(=O)NC8=O)nc7c6)CC5)CC4)c(OC)c3)cn(C)c(=O)c2C1 (stereo not shown) ), measured IC50 is 0.01 to 0.1 µM

For this compound ( CNC(=O)N1CCc2c(-c3cc(OC)c(CN4CCN(C5CCN(c6ccc7c(c6)C(=O)N(C6CCC(=O)NC6=O)C7=O)CC5)CC4)c(OC)c3)cn(C)c(=O)c2C1 (stereo not shown) ), measured IC50 is < 0.01 µM

For this compound ( COc1cc(-c2cn(C)c(=O)c3c2CCN(C(=O)NCC2CC4CN(CCCCN5CCN(c6ccc7c(c6)C(=O)N(C6CCC(=O)NC6=O)C7=O)CC5)CC4C2)C3)cc(OC)c1CN(C)C (stereo not shown) ), measured IC50 is 0.01 to 0.1 µM

For this compound ( COc1cc(-c2cn(C)c(=O)c3c2CCN(C(=O)NCC2CC4(CCN(CCCOc5ccc6c(c5)C(=O)N(C5CCC(=O)NC5=O)C6=O)CC4)CO2)C3)cc(OC)c1CN(C)C (stereo not shown) ), measured IC50 is 0.1 to 1 µM

For this compound ( COC(=O)N1CCc2c(-c3cc(OC)c(CN4CCC(CCN5CCN(c6ccc7c(c6)C(=O)N(C6CCC(=O)NC6=O)C7=O)CC5)CC4)c(OC)c3)cn(C)c(=O)c2C1 (stereo not shown) ), measured IC50 is < 0.01 µM
